Target: T1, FcRL4, overexpressed on 3T3 cells (UniProt Q96PJ5 20-515, limits assumed)
T1 construct: whole, on cells
T1 sequence (looked up): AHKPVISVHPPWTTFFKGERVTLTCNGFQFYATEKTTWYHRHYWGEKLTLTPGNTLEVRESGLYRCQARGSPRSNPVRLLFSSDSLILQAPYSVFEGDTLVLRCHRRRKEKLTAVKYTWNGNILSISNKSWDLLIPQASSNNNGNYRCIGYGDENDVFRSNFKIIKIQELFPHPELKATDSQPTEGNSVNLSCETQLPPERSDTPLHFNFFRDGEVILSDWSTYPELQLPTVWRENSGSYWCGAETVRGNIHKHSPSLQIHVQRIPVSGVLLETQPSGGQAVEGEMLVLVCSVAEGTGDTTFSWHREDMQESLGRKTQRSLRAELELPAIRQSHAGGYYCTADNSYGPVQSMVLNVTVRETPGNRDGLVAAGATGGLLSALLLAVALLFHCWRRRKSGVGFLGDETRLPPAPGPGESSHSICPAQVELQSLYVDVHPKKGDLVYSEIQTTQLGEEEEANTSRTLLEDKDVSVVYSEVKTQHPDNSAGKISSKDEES
Test: phage clone on 3T3-FcRL4 cells
observed_property: binding result

# count of solved cases: 4
1) ET200-019 (scFv, screened as phage clone; entry is VL-linker-VH-His tag-HA tag) scFv: NFMLTQPHSVSESPGKTVTISCTRSSGSIASNYVQWYQQRPGSAPTTVIYEDNQRPSGVPDRFSGSIDSSSNSASLTISGLKTEDEADYYCQSYDSSNSWVFGGGTKLTVLGSRGGGGSGGGGSGGGGSLEMAQVQLVQSGAEVKRPGSSVKVSCTASGGTFSSDAISWVRQAPGQGLEWMGGIIPMFGTANYAQKFQGRVTITADESTSTAYMELSSLRSEDTAVYYCAREGYYYPSAYLGSVLNDISSVYDEWGQGTLVTVSSTSGQAGQHHHHHHGAYPYDVPDYAS	no binding
2) ET200-040 (scFv, screened as phage clone; entry is VL-linker-VH-His tag-HA tag) scFv: QSVLTQPPSVSGAPGQRVTISCTGSSSNIGAGYDVHWYQQLPGTAPKLLIYGNSNRPSGVPDRFSGSKSGTSASLAITGLQAEDEADYYCQSYDSSLSGYVFGTGTKVTVLGSRGGGGSGGGGSGGGGSLEMAQVQLVQSGAEVKKPGASVKVSCKVSGYTLTELSMHWVRQAPGKGLEWMGGFDPEDGETIYAQKFQGRVTMTEDTSTDTAYMELSSLRSEDTAVYYCARYSGVYYDWGQGTLVTVSSTSGQAGQHHHHHHGAYPYDVPDYAS	no binding
3) ET200-104 (scFv, screened as phage clone; entry is VL-linker-VH-His tag-HA tag) scFv: NFMLTQPHSVSESPGKTVTISCTRSSGSIASNYVQWYQQRPGSAPTTVIYEDNQRPSGVPDRFSGSIDSSSNSASLTISGLKTEDEADYYCQSYDSSNVVFGGGTKVTVLGSRGGGGSGGGGSGGGGSLEMAEVQLVESGGGLVQPGGSLRLSCAASGFTFSSYEMNWVRQAPGKGLEWVSYISSSGSTIYYADSVKGRFTISRDNAKNSLYLQMNSLRAEDTAVYYCARWDYGMDVWGQGTTVTVSSTSGQAGQHHHHHHGAYPYDVPDYAS	no binding
4) ET200-106 (scFv, screened as phage clone; entry is VL-linker-VH-His tag-HA tag) scFv: SYELTQPPAASGTPGQRVTISCSGGVSNIGSGALNWYQQLPGTAPKLLIYSYNQRPSGVSDRFSGSRSATSASLAISGLQSEDEADYYCATWDDSVNGWVFGGGTKLTVLGSRGGGGSGGGGSGGGGSLEMAEVQLVESGAEVKKPGDSVKVSCKPSGYNFLNYGINWVRQAPGQGLEWMGWISTYTGNTNYAQKLQGRVTFTTDTSTSTAYMEMRSLRSDDTAVYYCARQQGGGWYDVWGQGTLVTVSSTSGQAGQHHHHHHGAYPYDVPDYAS	no binding

Continue with the binder presented below.
Need binding result, item ET200-112 (scFv, screened as phage clone; entry is VL-linker-VH-His tag-HA tag) scFv: QAVLTQPPSASGTPGQRVTISCSGSSSNIGSNTVNWYQQLPGTAPKLLMYSNDQRPSGVPDRFSGSKSGTSASLAISGLQSEDEADYYCAAWDDSLNGYVFAAGTQLTVLSSRGGGGSGGGGSGGGGSLEMAQVQLQQWGAGLLKPSETLSLTCAVYGGSFSGYYWSWIRQPPGKGLEWIGEINHSGSTNYNPSLKSRVTISVDTSKNQFSLKLSSVTAADTAVYYCAREGLDAFDIWGQGTMVTVSSTSGQAGQHHHHHHGAYPYDVPDYAS no binding
